Give measured pEC50 for each item. Keep answers brief.
Target: human A2B (Homo sapiens)
Sequence (P29275 whole entry): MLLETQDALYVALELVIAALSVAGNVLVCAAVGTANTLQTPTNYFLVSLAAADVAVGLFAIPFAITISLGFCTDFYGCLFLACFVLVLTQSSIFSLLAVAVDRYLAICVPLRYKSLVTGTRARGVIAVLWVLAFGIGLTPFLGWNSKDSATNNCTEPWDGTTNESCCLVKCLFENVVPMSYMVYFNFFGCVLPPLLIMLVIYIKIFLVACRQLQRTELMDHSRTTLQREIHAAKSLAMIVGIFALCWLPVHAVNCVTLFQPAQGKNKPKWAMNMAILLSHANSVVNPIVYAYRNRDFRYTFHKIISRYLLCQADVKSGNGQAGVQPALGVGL
Assay: cAMP HTRF assay for Gs coupled receptor, agonist test
Settings: agonist activity; HEK293 cells expressing recombinant human A2B; read-out: A2BAR EC50
Procedure: SPA ^35S-GTPγS experiments were conducted with Epics Therapeutics membrane preparations. cAMP HTRF assays were conducted with recombinant cell lines. Dose response curves are performed in parallel with the reference compounds. For agonist test (96 well): 12 μL of cells are mixed with 12 μL of the test compound at increasing concentrations and then incubated 30 min at room temperature. […]
// pEC50 here means minus log10 of the molar concentration (mol/L)

Query string: I have this molecule here, `N#Cc1c(SCc2cccnc2)nc(N2CC(F)C2)c(C#N)c1-c1ccc(OC2COC2)cc1` , and I need its recorded pEC50.
Result string: 6.94

Query string: Would you mind doing `N#Cc1c(N)nc(SCc2cccnc2)c(C#N)c1-c1ccc(O[C@H]2C[C@@H](O)C2)cc1` as well?
Result string: 8.61

Query string: Would you mind doing `N#Cc1c(N)nc(SCCO)c(C#N)c1-c1ccc(OCCO)cc1` as well?
Result string: 7.74

Query string: Would you mind doing `Cn1ccc2c(CSc3nc(N)c(C#N)c(-c4ccc(OC5COC5)cc4)c3C#N)cccc21` as well?
Result string: 6.05

----------
Biological target: human Adenosine A1 receptor (Homo sapiens, UniProt P30542)
Construct: host or cells: CHO-K1
Sequence (P30542 whole entry): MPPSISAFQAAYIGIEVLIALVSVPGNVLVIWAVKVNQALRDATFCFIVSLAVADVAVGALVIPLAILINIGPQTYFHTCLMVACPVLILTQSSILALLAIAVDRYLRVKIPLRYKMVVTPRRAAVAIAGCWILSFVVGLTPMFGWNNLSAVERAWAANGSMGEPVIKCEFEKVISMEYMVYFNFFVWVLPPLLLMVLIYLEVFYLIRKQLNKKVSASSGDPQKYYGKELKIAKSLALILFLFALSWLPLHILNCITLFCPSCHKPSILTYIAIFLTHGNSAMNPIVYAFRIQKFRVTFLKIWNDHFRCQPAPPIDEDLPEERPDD
Test: GTPγS scintillation proximity assay, agonist testing
Assay type: biochemical
Settings: agonist activity; membrane extracts of CHO-K1 cells expressing recombinant human A1; read-out: A1AR EC50
Description: SPA ^35S-GTPγS experiments were conducted with Epics Therapeutics membrane preparations. cAMP HTRF assays were conducted with recombinant cell lines. […] Protocol for agonist testing: membranes are mixed with GDP (volume:volume). […] Then the plates are centrifuged for 10 min at 2000 rpm, incubated at room temperature and counted for 30 sec/well with a PerkinElmer TopCount™ reader. • Conditions for the GTPγS scintillation proximity assay are shown in Table 14.
endpoint: EC50 (µM)
Just the number in µM, nothing appended.

Query string: Please provide the recorded EC50 for N#Cc1c(SCc2cnccn2)nc(N2CCC2)c(C#N)c1-c1ccc(OCCO)cc1 [Compound 6] , tested on human Adenosine A1 receptor (Homo sapiens, UniProt P30542).
Result string: 0.586

Query string: Would you mind doing N#Cc1c(N)nc(SCC2COCCO2)c(C#N)c1-c1ccc(OC2COC2)cc1 (stereo not drawn) [Compound 301] as well?
Result string: 0.228

Query string: Would you mind doing CC1(CSc2nc(N)c(C#N)c(-c3ccc(OC4COC4)cc3)c2C#N)COC1 [Compound 327] as well?
Result string: 0.0221

Query string: Would you mind doing COCCOc1ccc(-c2c(C#N)c(Sc3cccnc3)nc(N3CC(F)C3)c2C#N)cc1 [Compound 245] as well?
Result string: 0.00205

Query string: Would you mind doing N#Cc1c(SCc2cccnc2)nc(N2CCC2)c(C#N)c1-c1ccc(OCCO)cc1 [Compound 116] as well?
Result string: 0.0029

Query string: Would you mind doing COCCOc1ccc(-c2c(C#N)cnc(SCCO)c2C#N)cc1 [Compound 94] as well?
Result string: 1.01

Query string: Would you mind doing COCCOc1ccc(-c2c(C#N)c(SCc3cncnc3)nc(N3CCC3)c2C#N)cc1 [Compound 30] as well?
Result string: 3.09
